Source of measurements: patent US20030092631A1

- target-under-test: T1, IGF-1 (human, UniProt P05019 49-118)
- T1 construct: mature; also called insulin-like growth factor-1; rhIGF-1
- T1 sequence (P05019 49-118): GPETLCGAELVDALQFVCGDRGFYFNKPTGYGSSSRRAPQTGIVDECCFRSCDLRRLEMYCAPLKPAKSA
- protocol-description: phage ELISA, IGF-1 on plate
- Experimental: From each round, individual peptide-displaying phage were isolated and analyzed for binding to IGF-1 in a phage ELISA by capturing the peptide-phage with IGF-1 immobilized on a plate, and detecting bound phage (see below). As a control for non-specific binding, the phage were also analyzed in a phage ELISA that used plates coated with BSA. […]
measurement-name: binding result

INSERT INTO results (binder, meas_value) VALUES
  ('YDWVEACQKWPVLCMDSTMY (naive clone; polyvalent P8 display on phage; STII signal left out) YDWVEACQKWPVLCMDSTMYGGGSGGGAEGDDPAKAAFNSLQASATEYIGYAWAMVVVIVGATIGIKLFKKFTSKAS', 'binds'),
  ('STYSCIRDMGWAVYCWETTL (naive clone; polyvalent P8 display on phage; STII signal left out) STYSCIRDMGWAVYCWETTLGGGSGGGAEGDDPAKAAFNSLQASATEYIGYAWAMVVVIVGATIGIKLFKKFTSKAS', 'binds'),
  ('GASTTCLEKYRERQWCKELT (naive clone; polyvalent P8 display on phage; STII signal left out) GASTTCLEKYRERQWCKELTGGGSGGGAEGDDPAKAAFNSLQASATEYIGYAWAMVVVIVGATIGIKLFKKFTSKAS', 'binds');
